Quick reference: pIC50 of the listed items.
- assay.system: TYK2 (Homo sapiens)
- Sequence (P29597 whole entry): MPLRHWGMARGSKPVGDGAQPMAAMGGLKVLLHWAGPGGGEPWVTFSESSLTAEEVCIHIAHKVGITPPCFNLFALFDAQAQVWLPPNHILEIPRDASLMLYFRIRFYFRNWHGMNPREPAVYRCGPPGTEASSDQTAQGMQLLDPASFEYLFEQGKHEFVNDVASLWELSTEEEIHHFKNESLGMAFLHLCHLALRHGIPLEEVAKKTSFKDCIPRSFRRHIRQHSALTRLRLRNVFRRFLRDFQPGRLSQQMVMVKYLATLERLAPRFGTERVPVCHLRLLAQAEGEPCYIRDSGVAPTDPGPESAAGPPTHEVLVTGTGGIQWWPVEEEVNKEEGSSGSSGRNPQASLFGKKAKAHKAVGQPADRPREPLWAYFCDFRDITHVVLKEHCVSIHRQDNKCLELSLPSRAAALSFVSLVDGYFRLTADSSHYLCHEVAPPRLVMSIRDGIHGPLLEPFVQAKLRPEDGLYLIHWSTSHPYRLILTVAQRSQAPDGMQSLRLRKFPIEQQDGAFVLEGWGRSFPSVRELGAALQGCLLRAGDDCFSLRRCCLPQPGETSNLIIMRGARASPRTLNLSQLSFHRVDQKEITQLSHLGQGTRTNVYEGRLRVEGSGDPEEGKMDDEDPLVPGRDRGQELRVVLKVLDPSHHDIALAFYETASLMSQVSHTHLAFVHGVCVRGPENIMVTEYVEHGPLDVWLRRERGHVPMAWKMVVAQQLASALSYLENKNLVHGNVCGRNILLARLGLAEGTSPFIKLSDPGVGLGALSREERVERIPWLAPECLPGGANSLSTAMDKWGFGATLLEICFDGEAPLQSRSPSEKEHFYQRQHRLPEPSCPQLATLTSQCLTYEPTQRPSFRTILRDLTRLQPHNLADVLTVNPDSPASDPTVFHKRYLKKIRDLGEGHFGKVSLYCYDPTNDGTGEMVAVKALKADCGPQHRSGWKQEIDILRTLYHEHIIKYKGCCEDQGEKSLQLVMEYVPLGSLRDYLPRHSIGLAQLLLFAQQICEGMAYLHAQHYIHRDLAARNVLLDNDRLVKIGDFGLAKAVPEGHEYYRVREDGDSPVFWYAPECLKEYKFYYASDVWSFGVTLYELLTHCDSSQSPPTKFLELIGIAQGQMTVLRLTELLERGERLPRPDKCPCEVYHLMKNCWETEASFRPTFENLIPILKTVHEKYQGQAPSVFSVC
- experiment.summary: TYK2 kinase inhibition (Table A1)
- Type: biochemical
pIC50: −log10 of the molar value. Where a name gives a salt, the structure may show the parent alone.

Asked: Fill in the blank: the reported pIC50 of Cc1cc(C)c(C#N)c(N2CCC(CC(=O)Nc3ccc4cc3CCc3cncc(c3)Nc3ncc(Cl)c(n3)N4)CC2)n1 [Example A239, tris(trifluoroacetate)] is ____.
Given back: < 6.40

Asked: Fill in the blank: the reported pIC50 of O=C1Nc2cccc(c2)Nc2nc(ncc2Cl)Nc2cccc1c2 [Example C2, hydrochloride] is ____.
Given back: < 6.00

Asked: Fill in the blank: the reported pIC50 of N#Cc1ccc(C(=O)N2CCC(CC(=O)Nc3ccc4cc3CCc3cccc(c3)Nc3ncc(Cl)c(n3)N4)CC2)cc1 [Example A186, trifluoroacetate] is ____.
Given back: < 6.70
